assay_name: AP8ii peptide stability in human serum by analytic HPLC
Assay type: in vitro ADME
condition: 0.95 mmol/L peptide in 10 vol% human serum, 37 °C, 24 h, TFA quench, analytic HPLC C18, UV 280 nm, peak area, duplicates; read-out: peptide remained intact after 24 h of incubation
Where no end group is shown, it is not given here.
readout_label: remaining at 24 h, 0.95 mmol/L

The recorded remaining at 24 h, 0.95 mmol/L for entry YEWRFYHG [AP8ii, Tyr-Glu-Trp-Arg-Phe-Tyr-His-Gly] equals > 82%

* * *

assay_name: AP8ii peptide stability in human serum by analytic HPLC
Type: in vitro ADME
condition: 0.95 mmol/L peptide in 10 vol% human serum, 37 °C, analytic HPLC UV 280 nm; read-out: t1/2 in human serum
Where no end group is shown, it is not given here.
readout_label: half-life at 0.95 mmol/L

The recorded half-life at 0.95 mmol/L for entry YEWRFYHG [AP8ii, Tyr-Glu-Trp-Arg-Phe-Tyr-His-Gly] equals > 24 h
